- system-tested: guanylyl cyclase C (GCC) (human), P25092
- Sequence (P25092 24-1073 limits assumed): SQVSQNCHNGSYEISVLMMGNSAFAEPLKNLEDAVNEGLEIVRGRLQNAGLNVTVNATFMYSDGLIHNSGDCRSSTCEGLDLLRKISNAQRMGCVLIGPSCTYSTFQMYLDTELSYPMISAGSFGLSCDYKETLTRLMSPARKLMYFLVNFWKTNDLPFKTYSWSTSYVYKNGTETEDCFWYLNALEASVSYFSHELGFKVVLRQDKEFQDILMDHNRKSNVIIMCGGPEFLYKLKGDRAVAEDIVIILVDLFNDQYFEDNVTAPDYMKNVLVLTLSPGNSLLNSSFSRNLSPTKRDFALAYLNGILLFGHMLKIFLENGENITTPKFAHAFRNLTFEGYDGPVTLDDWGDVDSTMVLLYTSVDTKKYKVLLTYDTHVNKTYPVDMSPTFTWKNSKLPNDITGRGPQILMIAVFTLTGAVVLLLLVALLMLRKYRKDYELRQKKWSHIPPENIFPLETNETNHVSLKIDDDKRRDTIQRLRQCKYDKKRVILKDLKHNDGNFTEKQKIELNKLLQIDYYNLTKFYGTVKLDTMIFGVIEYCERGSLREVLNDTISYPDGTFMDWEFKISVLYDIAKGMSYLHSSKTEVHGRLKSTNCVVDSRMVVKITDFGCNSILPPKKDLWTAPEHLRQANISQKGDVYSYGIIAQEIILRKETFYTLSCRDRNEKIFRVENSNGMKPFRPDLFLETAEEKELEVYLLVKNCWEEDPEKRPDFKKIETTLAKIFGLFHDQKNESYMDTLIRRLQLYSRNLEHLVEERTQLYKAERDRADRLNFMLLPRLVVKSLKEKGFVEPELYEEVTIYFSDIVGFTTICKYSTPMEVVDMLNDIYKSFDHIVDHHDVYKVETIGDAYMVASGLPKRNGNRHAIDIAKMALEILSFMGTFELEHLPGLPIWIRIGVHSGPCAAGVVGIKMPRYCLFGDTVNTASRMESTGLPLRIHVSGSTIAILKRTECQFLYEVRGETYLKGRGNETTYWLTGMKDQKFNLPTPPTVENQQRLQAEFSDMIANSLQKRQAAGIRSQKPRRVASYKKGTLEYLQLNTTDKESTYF
- assay-remarks: in vitro competitive binding assay with HEK-293 GCC clone 2 cells (Indium-111 used as surrogate label; FIG. 13)

# binder, reading-unit, Kd
rows = [
    ("CCELCCNPACAGCY (modifications not checked) [MLN6907 DSP (drug substance precursor), Formula (VI): DOTA-Ahx-STp(5-18), not radiolabeled]", "nM", 3.2),
]
